# System: Mus musculus
# ASSAY PROCEDURE: Phototoxicity in Swiss Albino mouse assessed as ear thickness at 140 mg/kg, po after 4 hrs of irradiation
# Type: organism-based
# Set-up: dose 140 mg/kg, route oral
# MEASUREMENT PARAMETERS: in vivo
MEASURED PARAMETER: Activity (mm)
Respond with the bare value in mm.

Data request: So what does the record say about Activity for `O=C(O)c1cn2c(n1)CN(c1nc3c(cc1[N+](=O)[O-])c(=O)c(C(=O)O)cn3-c1ccc(F)cc1)CC2` ?
Data returned: 0.32

Data request: For the molecule CC1CN(c2nc3c(cc2[N+](=O)[O-])c(=O)c(C(=O)O)cn3-c2ccc(F)cc2)CC(C)O1 (centres undefined) , what Activity is on record?
Data returned: 0.25

Data request: Activity for CCn1cc(C(=O)O)c(=O)c2cc(F)c(N3CCNC(C)C3)c(F)c21 (centres undefined) [LOMEFLOXACIN] ?
Data returned: 0.4

Data request: Given `CC(C)(C)n1cc(C(=O)O)c(=O)c2cc([N+](=O)[O-])c(N3CCSCC3)nc21` , state its recorded Activity.
Data returned: 0.28

---

# Test system: Mus musculus
# ASSAY PROCEDURE: Phototoxicity in Swiss Albino mouse assessed as ear erythema at 140 mg/kg, po after 48 hrs of irradiation
# Assay type: organism-based
# Set-up: dose 140 mg/kg, route oral
# MEASUREMENT PARAMETERS: in vivo
MEASURED PARAMETER: Activity

Solved entries:
- COMPOUND: "CC1(C)COCN1c1nc2c(cc1[N+](=O)[O-])c(=O)c(C(=O)O)cn2C(C)(C)C"
  TESTED TARGET: "Mus musculus"
  Activity: "Toxic"
- COMPOUND: "CCn1cc(C(=O)O)c(=O)c2cc(F)c(N3CCNC(C)C3)c(F)c21 (stereo unspecified)"
  TESTED TARGET: "Mus musculus"
  Activity: "Toxic"
- COMPOUND: "CC(C)(C)n1cc(C(=O)O)c(=O)c2cc([N+](=O)[O-])c(N3CCSCC3)nc21"
  TESTED TARGET: "Mus musculus"
  Activity: "Non-toxic"
- COMPOUND: "CC1CN(c2nc3c(cc2[N+](=O)[O-])c(=O)c(C(=O)O)cn3-c2ccc(F)cc2)CC(C)O1 (stereo unspecified)"
  TESTED TARGET: "Mus musculus"
  Activity: "Non-toxic"
- COMPOUND: "O=C(O)c1cn(-c2ccc(F)cc2)c2nc(N3CCSCC3)c([N+](=O)[O-])cc2c1=O"
  TESTED TARGET: "Mus musculus"
  Activity: "Non-toxic"

Field: next compound
Data request: What value of measured Activity is listed for `O=C(O)c1cn2c(n1)CN(c1nc3c(cc1[N+](=O)[O-])c(=O)c(C(=O)O)cn3-c1ccc(F)cc1)CC2` ?
Data returned: Non-toxic

---

# System: Mus musculus
# ASSAY PROCEDURE: Phototoxicity in Swiss Albino mouse assessed as ear thickness at 140 mg/kg, po after 48 hrs of irradiation
# Format: organism-based
# Set-up: dose 140 mg/kg, route oral
# MEASUREMENT PARAMETERS: in vivo
Assign criterion met whenever Activity does not fall below 0.3 mm; assign criterion not met whenever it does.

Data request: # check: Activity of `O=C(O)c1cn2c(n1)CN(c1nc3c(cc1[N+](=O)[O-])c(=O)c(C(=O)O)cn3-c1ccc(F)cc1)CC2` is greater than or equal to 0.3 mm
Data returned: criterion met

Data request: Could you tell me if the measured Activity of CC1CN(c2nc3c(cc2[N+](=O)[O-])c(=O)c(C(=O)O)cn3-c2ccc(F)cc2)CC(C)O1 (configuration not stated) reaches 0.3 mm or more?
Data returned: criterion not met

Data request: Could you verify whether the entry COc1ccc(CC2C3=C(CCCC3)CCN2c2nc3c(cc2[N+](=O)[O-])c(=O)c(C(=O)O)cn3C2CC2)cc1 (configuration not stated) shows Activity of no less than 0.3 mm?
Data returned: criterion met

Data request: Does Activity meet or surpass 0.3 mm for `CC(C)(C)n1cc(C(=O)O)c(=O)c2cc([N+](=O)[O-])c(N3CCSCC3)nc21` ?
Data returned: criterion not met

Data request: Can `O=C(O)c1cn(-c2ccc(F)cc2)c2nc(N3CCSCC3)c([N+](=O)[O-])cc2c1=O` be said to have Activity at or above 0.3 mm?
Data returned: criterion not met

Data request: Can CCn1cc(C(=O)O)c(=O)c2cc(F)c(N3CCNC(C)C3)c(F)c21 (configuration not stated) [LOMEFLOXACIN] be said to have Activity at or above 0.3 mm?
Data returned: criterion met

Data request: Is it the case that `CC1(C)COCN1c1nc2c(cc1[N+](=O)[O-])c(=O)c(C(=O)O)cn2C(C)(C)C` has Activity reaching or exceeding 0.3 mm?
Data returned: criterion not met
